biological target: inducible nitric oxide synthase (iNOS) (Homo sapiens, UniProt P35228); test: NO release
Sequence (P35228 whole entry): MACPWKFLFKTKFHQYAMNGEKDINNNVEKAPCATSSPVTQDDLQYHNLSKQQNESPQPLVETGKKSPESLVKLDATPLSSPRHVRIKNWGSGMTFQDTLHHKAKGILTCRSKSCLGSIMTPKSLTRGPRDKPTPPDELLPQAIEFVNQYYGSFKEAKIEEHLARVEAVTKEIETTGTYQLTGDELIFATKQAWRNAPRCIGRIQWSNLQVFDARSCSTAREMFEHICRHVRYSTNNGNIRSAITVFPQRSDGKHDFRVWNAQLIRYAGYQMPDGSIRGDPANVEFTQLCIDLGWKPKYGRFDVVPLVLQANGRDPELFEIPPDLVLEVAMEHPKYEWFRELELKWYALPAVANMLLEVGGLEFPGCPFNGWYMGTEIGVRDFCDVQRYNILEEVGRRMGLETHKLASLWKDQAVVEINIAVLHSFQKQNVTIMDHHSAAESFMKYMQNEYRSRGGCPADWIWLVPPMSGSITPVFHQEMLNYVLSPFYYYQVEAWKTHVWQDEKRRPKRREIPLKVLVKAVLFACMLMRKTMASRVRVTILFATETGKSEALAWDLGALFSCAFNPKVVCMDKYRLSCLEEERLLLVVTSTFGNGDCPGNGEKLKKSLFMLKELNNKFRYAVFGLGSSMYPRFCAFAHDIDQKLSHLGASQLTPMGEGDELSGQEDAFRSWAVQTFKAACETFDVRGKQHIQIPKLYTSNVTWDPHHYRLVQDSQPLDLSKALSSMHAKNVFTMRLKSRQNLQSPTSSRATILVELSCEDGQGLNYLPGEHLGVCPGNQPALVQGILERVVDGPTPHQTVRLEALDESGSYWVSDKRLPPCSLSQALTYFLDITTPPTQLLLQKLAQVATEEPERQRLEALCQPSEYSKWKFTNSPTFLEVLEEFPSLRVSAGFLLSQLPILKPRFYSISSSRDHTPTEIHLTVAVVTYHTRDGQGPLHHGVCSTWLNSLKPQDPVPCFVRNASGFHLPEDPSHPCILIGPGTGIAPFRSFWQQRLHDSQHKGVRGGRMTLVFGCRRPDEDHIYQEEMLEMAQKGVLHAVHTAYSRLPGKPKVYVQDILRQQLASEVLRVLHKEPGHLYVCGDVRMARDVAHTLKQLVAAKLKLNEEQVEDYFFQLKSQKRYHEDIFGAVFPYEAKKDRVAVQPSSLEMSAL
EXPERIMENTAL_ENDPOINT: IC50
# output: numeric value plus its unit

IC50 measured on CC(=N)NCCCC[C@H](N)C(=O)O = 595 µM
